Target: HCV NS3 protease genotype 3a (3A-1) (Hepatitis C virus genotype 3a)
Sequence (Q81258 1664-1717): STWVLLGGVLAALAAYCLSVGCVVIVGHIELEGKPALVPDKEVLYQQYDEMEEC
Sequence (Q81258 1033-1663): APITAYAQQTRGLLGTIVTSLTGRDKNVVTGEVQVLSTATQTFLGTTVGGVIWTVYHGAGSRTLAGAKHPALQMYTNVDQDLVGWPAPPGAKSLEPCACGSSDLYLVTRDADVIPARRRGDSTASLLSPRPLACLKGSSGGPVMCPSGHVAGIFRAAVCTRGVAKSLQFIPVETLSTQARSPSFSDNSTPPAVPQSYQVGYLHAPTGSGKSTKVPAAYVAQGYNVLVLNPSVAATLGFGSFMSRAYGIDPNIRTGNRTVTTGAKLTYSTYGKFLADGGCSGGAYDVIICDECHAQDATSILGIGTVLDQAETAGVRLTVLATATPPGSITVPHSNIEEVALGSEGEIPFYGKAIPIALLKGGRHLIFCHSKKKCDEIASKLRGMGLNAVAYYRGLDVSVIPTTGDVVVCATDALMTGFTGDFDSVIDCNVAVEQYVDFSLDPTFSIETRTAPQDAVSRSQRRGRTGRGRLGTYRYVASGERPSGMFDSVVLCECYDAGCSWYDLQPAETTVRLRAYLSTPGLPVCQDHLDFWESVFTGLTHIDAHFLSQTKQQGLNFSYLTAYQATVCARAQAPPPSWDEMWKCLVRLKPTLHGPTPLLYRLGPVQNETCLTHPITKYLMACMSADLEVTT
Test: HCV NS3 protease time-resolved fluorescence (TRF) assay, genotype 3a
Type: biochemical
Details: Ki 3a
Structures can show the parent of a compound that is named as a salt.
Give pKi for every item shown.
Scale explanation: pKi corresponds to minus log10 of a concentration expressed in moles per litre.

Which pKi value belongs to C=C[C@@H]1C[C@]1(NC(=O)[C@@H]1C[C@@H]2CN1C(=O)[C@H](C(C)(C)C)NC(=O)O[C@@H]1C[C@H]1CCCCCc1c(nc3ccccc3c1OCCCN1CCCCC1c1nc3cc(F)ccc3[nH]1)O2)C(=O)NS(=O)(=O)C1(C)CC1 (some centres unmarked) [Example 203] ?
8.31

Then CCOc1c2c(nc3ccccc13)O[C@@H]1C[C@@H](C(=O)N[C@]3(C(=O)NS(=O)(=O)C4CC4)C[C@H]3CC)N(C1)C(=O)[C@H](C1CCCC1)NC(=O)O[C@@H]1CCC[C@H]1CC/C=C/C2 [Example 2] ?
7.51

Then C=C[C@@H]1C[C@]1(NC(=O)[C@@H]1C[C@@H]2CN1C(=O)[C@H](C1CCCCC1)NC(=O)O[C@@H]1C[C@H]1CCCCCc1c(nc3c(OC)cccc3c1OCCN1CCOCC1)O2)C(=O)NS(=O)(=O)C1(C)CC1 [Example 128] ?
7.89

Then C=C[C@@H]1C[C@]1(NC(=O)[C@@H]1C[C@@H]2CN1C(=O)[C@H](C1CCCCC1)NC(=O)O[C@@H]1C[C@H]1CCCCCc1c(nc3ccccc3c1OCCCNC1CCC1)O2)C(=O)NS(=O)(=O)C1(C)CC1 [Example 242, formate] ?
9.03

Then C=C[C@@H]1C[C@]1(NC(=O)[C@@H]1C[C@@H]2CN1C(=O)[C@H](C(C)(C)C)NC(=O)O[C@@H]1CCC[C@H]1CCCCCc1c(nc3ccccc3c1OCCN1CCOCC1)O2)C(=O)NS(=O)(=O)N(C)C [Example 106] ?
7.77

Then C=C[C@@H]1CC1(NC(=O)[C@@H]1C[C@@H]2CN1C(=O)[C@H](C1CCCCC1)NC(=O)O[C@@H]1C[C@H]1CCCCCc1c(nc3ccccc3c1OCCCN1CC(F)C1)O2)C(=O)NS(=O)(=O)C1(C)CC1 (some centres unmarked) [Example 250] ?
8.35

Then C=C[C@@H]1C[C@]1(NC(=O)[C@@H]1C[C@@H]2CN1C(=O)[C@H](C(C)(C)C)NC(=O)O[C@@H]1C[C@H]1CCCCCc1c(nc3ccccc3c1OC1CCN(CC(F)(F)F)CC1)O2)C(=O)NS(=O)(=O)C1(C)CC1 [Example 234] ?
7.54

Then C=C[C@@H]1C[C@]1(NC(=O)[C@@H]1C[C@@H]2CN1C(=O)[C@H](C1CCCCC1)NC(=O)O[C@@H]1C[C@H]1CCCCCc1c(nc3ccccc3c1OC1CC3COCC(C1)N3CCOC)O2)C(=O)NS(=O)(=O)C1(C)CC1 (some centres unmarked) [Example 289] ?
8.48

Then C=C[C@@H]1C[C@]1(NC(=O)[C@@H]1C[C@@H]2CN1C(=O)[C@H](C(C)(C)C)NC(=O)O[C@@H]1C[C@H]1CCCCCc1c(nc3cc(F)ccc3c1OCCCN1CCCC1)O2)C(=O)NS(=O)(=O)C1(C)CC1 [Example 151] ?
9.21

Then C=C[C@@H]1C[C@]1(NC(=O)[C@@H]1C[C@@H]2CN1C(=O)[C@H](C(C)(C)C)NC(=O)O[C@@H]1C[C@H]1CCCCCc1c(nc3ccccc3c1OC1CC3CCC(C1)N3CC)O2)C(=O)NS(=O)(=O)C1(C)CC1 (single isomer, unassigned) [Example 277] ?
10.11

Then C=C[C@@H]1C[C@]1(NC(=O)[C@@H]1C[C@@H]2CN1C(=O)[C@H](C(C)(C)C)NC(=O)O[C@@H]1C[C@H]1CCCCCc1c(nc3ccccc3c1OCCCN1CC3CCC1C3)O2)C(=O)NS(=O)(=O)C1(C)CC1 [Example 196] ?
9.07

Then C=C[C@@H]1C[C@]1(NC(=O)[C@@H]1C[C@@H]2CN1C(=O)[C@H](C(C)(C)C)NC(=O)O[C@@H]1C[C@H]1CCCCCc1c(nc3ccccc3c1OCCc1ccccn1)O2)C(=O)NS(=O)(=O)C1(C)CC1 [Example 217] ?
8.15

Then C=C[C@@H]1C[C@]1(NC(=O)[C@@H]1C[C@@H]2CN1C(=O)[C@H](C(C)(C)C)NC(=O)O[C@@H]1C[C@H]1CCCCCc1c(nc3ccccc3c1OCCCN1CCCCC1)O2)C(=O)NS(=O)(=O)C1(C)CC1 [Example 115] ?
9.60

Then C=C[C@@H]1C[C@]1(NC(=O)[C@@H]1C[C@@H]2CN1C(=O)[C@H](C(C)(C)C)NC(=O)O[C@@H]1CCC[C@H]1CC/C=C/Cc1c(nc3ccccc3c1OCCn1cccc1)O2)C(=O)NS(=O)(=O)C1CC1 [Example 52] ?
8.00

Then C=C[C@@H]1C[C@]1(NC(=O)[C@@H]1C[C@@H]2CN1C(=O)[C@H](C1CCCCC1)NC(=O)O[C@@H]1C[C@H]1CCCCCc1c(nc3ccccc3c1OCCCN1CCN(S(C)(=O)=O)CC1)O2)C(=O)NS(=O)(=O)C1(C)CC1 [Example 165] ?
8.55

Then COc1c2c(nc3ccccc13)O[C@@H]1C[C@H]3C(=O)N[C@]4(C(=O)NS(=O)(=O)C5(C)CC5)C[C@H]4/C=C\CCCCC[C@H](NC(=O)O[C@@H]4C[C@H]4CCC/C=C/2)C(=O)N3C1 [Example 300] ?
8.15

Then C=C[C@@H]1C[C@]1(NC(=O)[C@@H]1C[C@@H]2CN1C(=O)[C@H](C(C)(C)C)NC(=O)O[C@@H]1C[C@H]1CCCCCc1c(nc3ccccc3c1OCCCN1CCN(C)CC1)O2)C(=O)NS(=O)(=O)C1(C)CC1 [Example 131] ?
8.89
